molecular target: Glucagon-like peptide 1 receptor (Homo sapiens, UniProt P43220)
Sequence (P43220 whole entry): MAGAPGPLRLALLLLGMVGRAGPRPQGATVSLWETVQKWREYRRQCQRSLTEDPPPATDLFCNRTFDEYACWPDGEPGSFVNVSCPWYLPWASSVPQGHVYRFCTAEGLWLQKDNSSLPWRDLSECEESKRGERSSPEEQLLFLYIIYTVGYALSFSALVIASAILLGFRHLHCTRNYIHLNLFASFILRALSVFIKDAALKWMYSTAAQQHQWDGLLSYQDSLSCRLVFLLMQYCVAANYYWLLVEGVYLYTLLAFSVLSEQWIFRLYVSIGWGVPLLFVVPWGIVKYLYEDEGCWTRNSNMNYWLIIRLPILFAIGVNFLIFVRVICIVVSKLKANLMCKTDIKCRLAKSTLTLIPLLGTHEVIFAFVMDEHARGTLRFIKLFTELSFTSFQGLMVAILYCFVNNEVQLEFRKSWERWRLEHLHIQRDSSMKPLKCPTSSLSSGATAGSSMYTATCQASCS
Positions of bridges follow the written chain, without caps; N, C: chain ends. Non-standard residues stand in square brackets, D forms with d. Residues, ends and D or L forms follow the SMILES beside them. Bip(2'-Et-4'-OMe) = CCc1cc(OC)ccc1-c1ccc(C[C@H](N)C(=O)O)cc1; Bip(2'-Me) = Cc1ccccc1-c1ccc(C[C@H](N)C(=O)O)cc1; αMePhe(2,6-F2) = C[C@](N)(Cc1c(F)cccc1F)C(=O)O; Tyr(3-I) = N[C@@H](Cc1ccc(O)c(I)c1)C(=O)O; αMePhe(2-F) = C[C@](N)(Cc1ccccc1F)C(=O)O; hhPhe = N[C@@H](CCCc1ccccc1)C(=O)O; Aad = N[C@@H](CCCC(=O)O)C(=O)O; Aib = CC(C)(N)C(=O)O
Readings of log10 Ki for the listed compounds
measured-metric: log10 Ki (log10 of the value in nM)

* CCc1cc(OC)ccc1-c1ccc(C[C@H](NC(=O)[C@@H]2CCCC(=O)NCCCC[C@H](NC(=O)CNC(=O)[C@H](CCC(=O)O)NC(=O)C(C)(C)NC(=O)[C@@H](N)Cc3cnc[nH]3)C(=O)N[C@@](C)(Cc3ccccc3F)C(=O)N[C@@H]([C@@H](C)O)C(=O)N[C@@H](CO)C(=O)N2)C(=O)N[C@@H](CCCc2ccccc2)C(N)=O)cc1 (H-H[Aib]EGK[αMePhe(2-F)]TS[Aad][Bip(2'-Et-4'-OMe)][hhPhe]-NH2; lactam 5-9) | 2.48
* CCc1cc(OC)ccc1-c1ccc(C[C@H](NC(=O)[C@H](CC(=O)O)NC(=O)[C@H](CO)NC(=O)[C@@H](NC(=O)[C@](C)(Cc2ccccc2F)NC(=O)[C@H]2CSSCC[C@@H](NC(=O)[C@@H](N)Cc3cnc[nH]3)C(=O)N[C@@H](CCC(=O)O)C(=O)NCC(=O)N2)[C@@H](C)O)C(=O)N[C@@H](CCCc2ccccc2)C(N)=O)cc1 | 3.68
* CCc1cc(OC)ccc1-c1ccc(C[C@H](NC(=O)[C@H](CC(=O)O)NC(=O)[C@H](CO)NC(=O)[C@@H](NC(=O)[C@](C)(Cc2c(F)cccc2F)NC(=O)[C@@H](NC(=O)CNC(=O)[C@H](CCC(=O)O)NC(=O)C(C)(C)NC(=O)[C@@H](N)Cc2cnc[nH]2)[C@@H](C)O)[C@@H](C)O)C(=O)N[C@@H](Cc2ccc(-c3ccccc3C)cc2)C(N)=O)cc1 (H-H[Aib]EGT[αMePhe(2,6-F2)]TSD[Bip(2'-Et-4'-OMe)][Bip(2'-Me)]-NH2) | -0.18
* CCc1cc(OC)ccc1-c1ccc(C[C@H](NC(=O)[C@H](CC(=O)O)NC(=O)[C@H](CO)NC(=O)[C@@H](NC(=O)[C@](C)(Cc2ccccc2F)NC(=O)[C@@H](NC(=O)CNC(=O)[C@H](CCC(=O)O)NC(=O)C(C)(C)NC(=O)[C@@H](N)Cc2cnc[nH]2)[C@@H](C)O)[C@@H](C)O)C(=O)N[C@@H](Cc2ccc(O)c(I)c2)C(N)=O)cc1 (H-H[Aib]EGT[αMePhe(2-F)]TSD[Bip(2'-Et-4'-OMe)][Tyr(3-I)]-NH2) | 0.78
* CCc1cc(OC)ccc1-c1ccc(C[C@H](NC(=O)[C@@H]2CCCCNC(=O)CC[C@H](NC(=O)CNC(=O)[C@H](CCC(=O)O)NC(=O)C(C)(C)NC(=O)[C@@H](N)Cc3cnc[nH]3)C(=O)N[C@@](C)(Cc3ccccc3F)C(=O)N[C@@H]([C@@H](C)O)C(=O)N[C@@H](CO)C(=O)N2)C(=O)N[C@@H](CCCc2ccccc2)C(N)=O)cc1 (H-H[Aib]EGE[αMePhe(2-F)]TSK[Bip(2'-Et-4'-OMe)][hhPhe]-NH2; lactam 5-9) | 2.51
* CCc1cc(OC)ccc1-c1ccc(C[C@H](NC(=O)[C@H](CC(=O)O)NC(=O)[C@H](CO)NC(=O)[C@@H](NC(=O)[C@](C)(Cc2ccccc2F)NC(=O)[C@H]2CCSSC[C@H](NC(=O)[C@@H](N)Cc3cnc[nH]3)C(=O)N[C@@H](CCC(=O)O)C(=O)NCC(=O)N2)[C@@H](C)O)C(=O)N[C@@H](CCCc2ccccc2)C(N)=O)cc1 | 2.99
* CCc1cc(OC)ccc1-c1ccc(C[C@H](NC(=O)[C@@H]2CC(=O)NCCCC[C@H](NC(=O)CNC(=O)[C@H](CCC(=O)O)NC(=O)C(C)(C)NC(=O)[C@@H](N)Cc3cnc[nH]3)C(=O)N[C@@](C)(Cc3ccccc3F)C(=O)N[C@@H]([C@@H](C)O)C(=O)N[C@@H](CO)C(=O)N2)C(=O)N[C@@H](CCCc2ccccc2)C(N)=O)cc1 (H-H[Aib]EGK[αMePhe(2-F)]TSD[Bip(2'-Et-4'-OMe)][hhPhe]-NH2; lactam 5-9) | 1.77
* CCc1cc(OC)ccc1-c1ccc(C[C@H](NC(=O)[C@H](CC(=O)O)NC(=O)[C@H](CO)NC(=O)[C@@H](NC(=O)[C@](C)(Cc2ccccc2F)NC(=O)[C@@H](NC(=O)CNC(=O)[C@H](CCC(=O)O)NC(=O)C(C)(C)NC(=O)[C@@H](N)Cc2cnc[nH]2)[C@@H](C)O)[C@@H](C)O)C(=O)N[C@@H](CCCc2ccccc2)C(N)=O)cc1 (H-H[Aib]EGT[αMePhe(2-F)]TSD[Bip(2'-Et-4'-OMe)][hhPhe]-NH2) | -0.24
* CCc1cc(OC)ccc1-c1ccc(C[C@H](NC(=O)[C@@H]2CCCCNC(=O)C[C@H](NC(=O)CNC(=O)[C@H](CCC(=O)O)NC(=O)C(C)(C)NC(=O)[C@@H](N)Cc3cnc[nH]3)C(=O)N[C@@](C)(Cc3ccccc3F)C(=O)N[C@@H]([C@@H](C)O)C(=O)N[C@@H](CO)C(=O)N2)C(=O)N[C@@H](CCCc2ccccc2)C(N)=O)cc1 (H-H[Aib]EGD[αMePhe(2-F)]TSK[Bip(2'-Et-4'-OMe)][hhPhe]-NH2; lactam 5-9) | 3.08
